Target: human IDO1 (Homo sapiens, UniProt P14902)
Sequence (P14902 whole entry): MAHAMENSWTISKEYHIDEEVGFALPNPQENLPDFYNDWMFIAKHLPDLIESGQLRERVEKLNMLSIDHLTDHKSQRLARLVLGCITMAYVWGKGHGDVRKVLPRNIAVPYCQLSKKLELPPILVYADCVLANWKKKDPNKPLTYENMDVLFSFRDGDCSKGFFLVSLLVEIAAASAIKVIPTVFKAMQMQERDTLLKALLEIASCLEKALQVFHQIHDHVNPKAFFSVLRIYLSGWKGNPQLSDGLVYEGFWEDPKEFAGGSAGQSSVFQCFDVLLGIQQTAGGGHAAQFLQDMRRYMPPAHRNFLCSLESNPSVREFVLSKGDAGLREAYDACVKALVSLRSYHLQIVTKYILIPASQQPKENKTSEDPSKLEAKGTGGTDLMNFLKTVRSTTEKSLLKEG
Assay: IDO inhibition assay in HEK293 cells stably expressing human IDO1 (kynurenine, Ehrlich reagent)
Conditions: 20 hours incubation, absorbance at 490 nm, read-out: IDO1 HEK Human IC50
Listing: IC50 of selected compounds
A number alone suffices; assume nM.

C[C@@H](c1nc2ncccc2[nH]1)[C@H]1CC[C@@H](c2ccnc3ccc(F)cc32)CC1 = 23.2

stdin: IC50 lookup needed for C[C@@H](c1nc2cnccc2[nH]1)[C@H]1CC[C@@H](c2ccnc3ccc(F)cc32)CC1 , thanks.
stdout: 105

stdin: Same question, C[C@@H](c1nc2cc3c(cc2[nH]1)OCO3)[C@H]1CC[C@@H](c2ccnc3ccc(F)cc32)CC1 this time
stdout: 1.5

stdin: Param item: CCC(c1nc2ccc(Cl)cc2[nH]1)[C@H]1CC[C@H](Oc2ccnc3ccccc23)CC1 (mixture of isomers) [Example 13]
stdout: 3.4

----------
Target: UniProt:P14902
Test: HeLa cell-based indoleamine 2,3-dioxygenase (IDO) assay (kynurenine production)
Conditions: HeLa cells, IFNγ 25 ng/mL, 48 hour incubation, absorbance at 480 nm
pIC50 by entry:
On this scale, pIC50 is minus log10 of a concentration expressed in M (mol/L).

Below are worked cases with known answers.
C[C@@H](c1nc2cc(OC(F)(F)F)ccc2[nH]1)[C@H]1CC[C@@H](c2ccnc3ccc(F)cc32)CC1 = 7.97
CC[C@H](c1nc2ccc(Cl)cc2[nH]1)[C@H]1CC[C@@H](c2ccnc3ccc(F)cc32)CC1 (single isomer, unassigned) [Example 15-3] = 8.46
COCC(c1nc2ccc(Cl)cc2[nH]1)[C@H]1CC[C@@H](c2ccnc3ccc(C(F)(F)F)cc32)CC1 (mixture of isomers) = 7.92
CCC(c1nc2ncc(Cl)cc2[nH]1)[C@H]1CC[C@@H](c2ccnc3ccc(C(F)(F)F)cc32)CC1 (single isomer, unassigned) [Example 22-1] = 8.62
CCC(c1nc2ccc(Cl)cc2[nH]1)[C@H]1CC[C@@H](c2ccnc(F)c2C)CC1 (single isomer, unassigned) [Example 23-2] = 8.49
C[C@@H](c1cn2ncccc2n1)[C@H]1CC[C@@H](c2ccnc3ccc(F)cc32)CC1 = 6.22
CC(c1nc2ccc(Cl)cc2[nH]1)C1CCC(c2ccnc3ncccc23)CC1 (stereo not shown) [Example 35-1] = 6.00
C[C@@H](c1nc2cc(Cl)c(Cl)cc2[nH]1)[C@H]1CC[C@@H](c2ccnc3ccc(F)cc32)CC1 = 8.26
C[C@@H](c1nc2ncccc2[nH]1)[C@H]1CC[C@@H](c2ccnc3ccc(F)cc32)CC1 = 7.52
CCC(c1nc2ncc(Cl)cc2[nH]1)[C@H]1CC[C@H](Oc2ccnc3ccccc23)CC1 (single isomer, unassigned) [Example 20-1] = 8.22

stdin: So what's the measured pIC50 for this one? CCC(c1nc2ccc(Cl)cc2[nH]1)[C@H]1CC[C@@H](c2ccnc(F)c2C)CC1 (single isomer, unassigned) [Example 23-1]
stdout: 6.00

stdin: Record: COCC(c1nc2ccc(Cl)cc2[nH]1)[C@H]1CC[C@@H](c2ccnc3ccc(F)cc32)CC1 (mixture of isomers)
stdout: 8.42

----------
Target: indoleamine 2,3-dioxygenase (IDO) (Homo sapiens)
Construct: host or cells: HeLa cells stimulated with IFNγ (25 ng/mL)
Assay: HeLa cell-based indoleamine 2,3-dioxygenase (IDO) assay (kynurenine production)
Conditions: HeLa cells, IFNγ 25 ng/mL, 48 hour incubation, absorbance at 480 nm
A collection of compounds and their measured pIC50
Scale note: pIC50 = -log10(concentration in M).

See these solved cases before continuing.
CCC(c1nc2ncc(Cl)cc2[nH]1)[C@H]1CC[C@H](Oc2ccnc3ccccc23)CC1 (single isomer, unassigned) [Example 20-2] = 8.35
C[C@@H](c1nc2cc(C(F)(F)F)ccc2[nH]1)[C@H]1CC[C@@H](c2ccnc3ccc(F)cc32)CC1 [Example 45] = 8.51
CCC(c1nc2ncc(Cl)cc2[nH]1)[C@H]1CC[C@@H](c2ccnc3ccc(C(F)(F)F)cc32)CC1 (mixture of isomers) [Example 22] = 8.43
CCC(c1nc2ncc(Cl)cc2[nH]1)[C@H]1CC[C@H](Oc2ccnc3ccccc23)CC1 (mixture of isomers) [Example 20] = 8.24
CC[C@H](c1nc2ncc(Cl)cc2[nH]1)[C@H]1CC[C@@H](c2ccnc3ccc(F)cc32)CC1 (single isomer, unassigned) [Example 21-3] = 8.29
COC(=O)c1ccc2[nH]c([C@H](C)[C@H]3CC[C@@H](c4ccnc5ccc(F)cc54)CC3)nc2c1 [Example 50] = 8.68

stdin: Data request, read-out pIC50, for CCC(c1nc2ncc(Cl)cc2[nH]1)[C@H]1CC[C@@H](c2ccnc(F)c2C)CC1 (single isomer, unassigned) [Example 24-2]
stdout: 8.57

stdin: Check CC(c1nc2ccc(Cl)cc2[nH]1)C1CCC(c2ccnc3ccccc23)CC1 (single isomer, unassigned) [Example 16-2] too.
stdout: 8.24

stdin: And for C[C@@H](c1nc2ccccc2[nH]1)[C@H]1CC[C@@H](c2ccnc3ccc(F)cc32)CC1 [Example 1] ?
stdout: 8.33

stdin: Same read-out for CCOCC(c1nc2ccc(Cl)cc2[nH]1)[C@H]1CC[C@@H](c2ccnc(F)c2C)CC1 (single isomer, unassigned) [Example 25-2] ?
stdout: 7.64

stdin: Continue with CC(c1nc2ccc(Cl)cc2[nH]1)C1CCC(c2ccnc3ncccc23)CC1 (single isomer, unassigned) [Example 35-2]
stdout: 7.84

stdin: How about this compound: C[C@@H](c1nc2ccc(F)cc2[nH]1)[C@H]1CC[C@@H](c2ccnc3ccc(F)cc32)CC1 [Example 3]
stdout: 8.82

stdin: Ok, now C[C@@H](Nc1nc2ccc(Cl)cc2o1)[C@H]1CC[C@@H](c2ccnc3ccc(F)cc32)CC1 [Example 11]
stdout: 7.39

stdin: Request: C[C@@H](c1nnc2ccccn12)[C@H]1CC[C@@H](c2ccnc3ccc(F)cc32)CC1 [Example 26]
stdout: 6.34

----------
Target: indoleamine 2,3-dioxygenase (IDO) (Homo sapiens, UniProt P14902)
Sequence (P14902 whole entry): as above
Assay: HeLa cell-based indoleamine 2,3-dioxygenase (IDO) assay (kynurenine production)
Settings: HeLa cells, IFNγ 25 ng/mL, 48 hour incubation, absorbance at 480 nm
Experimental: Assessment of inhibitor activity in HeLa cell-based indoleamine 2,3-dioxygenase (IDO) assay: […] IDO activity was assessed as a function of kynurenine production as follows: HeLa cells were seeded in a 96-well culture plate at a density of 5,000 cells/well and allowed to equilibrate overnight. […] The percentage activity at each inhibitor concentration was determined and IC50 values assessed using nonlinear regression.
hey, just use Yes if measured IC50 is less than 10 nM, otherwise No

stdin: Here's an entry: CC[C@H](c1nc2ncc(Cl)cc2[nH]1)[C@H]1CC[C@@H](c2ccnc3ccc(F)cc32)CC1 (single isomer, unassigned) [Example 21-1] . Is its IC50 below 10 nM?
stdout: Yes

stdin: Continue with C[C@@H](c1nc2cc(C#N)ccc2[nH]1)[C@H]1CC[C@@H](c2ccnc3ccc(F)cc32)CC1
stdout: No

stdin: Another: C[C@@H](c1nc2ccc(Cl)cc2[nH]1)[C@H]1CC[C@@H](c2ccnc3ccc(F)cc32)CC1
stdout: Yes

stdin: Then this compound: CC(c1nc2ccc(Cl)cc2[nH]1)C1CCC(c2ccnc3ncccc23)CC1 (mixture of isomers) [Example 34]
stdout: No

stdin: Also need C[C@H](c1nc2ccc(Cl)cc2[nH]1)[C@H]1CC[C@@H](c2ccnc(C(F)(F)F)c2)CC1 (single isomer, unassigned) [Example 39-1] , thanks.
stdout: No

stdin: Queued: C[C@@H](c1nc2cc(F)c(F)cc2[nH]1)[C@H]1CC[C@@H](c2ccnc3ccc(F)cc32)CC1
stdout: Yes

----------
Target: human IDO1 (Homo sapiens)
Test: IDO inhibition assay in HEK293 cells stably expressing human IDO1 (kynurenine, Ehrlich reagent)
Settings: 20 hours incubation, absorbance at 490 nm, read-out: IDO1 HEK Human IC50
reported-metric: log10 IC50 (log10 of the value in µM)
Kindly note that the scale is log10 and the underlying IC50 is in µM.

# example entries with known answers
CC[C@H](c1nc2ccc(Cl)cc2[nH]1)[C@H]1CC[C@@H](c2ccnc3ccc(F)cc32)CC1 (single isomer, unassigned) [Example 15-4] = -2.18
CCC(c1nc2ccc(Cl)cc2[nH]1)[C@H]1CC[C@H](Oc2ccnc3ccccc23)CC1 (single isomer, unassigned) [Example 13-2] = -2.47
CCC(c1nc2ccc(Cl)cc2[nH]1)[C@H]1CC[C@@H](Oc2ccnc3ccccc23)CC1 (stereo partly shown) [Example 51] = 0.03
CC[C@H](c1nc2ccc(Cl)cc2[nH]1)[C@H]1CC[C@@H](c2ccnc3ccc(F)cc32)CC1 (single isomer, unassigned) [Example 15-2] = -0.96

stdin: Request body: readout log10 IC50, system human IDO1 (Homo sapiens), query C[C@@H](Nc1nc2ccc(Cl)cc2o1)[C@H]1CC[C@@H](c2ccnc3ccc(F)cc32)CC1 . Return the value.
stdout: -1.39

stdin: For CCC(c1nc2ccc(Cl)cc2[nH]1)[C@H]1CC[C@@H](Oc2ccnc3ccccc23)CC1 (stereo partly shown) [Example 52] then?
stdout: -0.16

stdin: Then C[C@@H](Nc1nc2ccccc2s1)[C@H]1CC[C@@H](c2ccnc3ccc(F)cc32)CC1 ?
stdout: -0.71
